A compilation of IC50 values for Cathepsin K (Homo sapiens) from the published literature.
Quick rule for you: IC50 under 0.03 µM gets yes, anything else gets no.

The following compounds have reported results that may help.
- Compound: "N#CC1(NC(=O)[C@H](CS(=O)(=O)CC2CC2)N[C@@H](c2ccccc2)C(F)(F)F)CC1"
  Group: "no"
- Compound: "Cc1nn(C)cc1C(=O)N[C@@H](Cc1cccc(Cl)c1)C(=O)NCC#N"
  Group: "no"
- Compound: "CC(C)(F)C[C@H](N[C@@H](c1ccc(-c2ccc(S(C)(=O)=O)cc2)cc1)C(F)(F)F)C(=O)NC1(C#N)CC1"
  Group: "yes"
- Compound: "CC(C)C[C@H](NC(=O)OC(C(C)C)C(C)C)C(=O)C(=O)NCc1cccs1"
  Group: "yes"
- Compound: "N#Cc1nc(NC2CCOC2)c(N)c(N2CCOCC2)n1 (configuration not stated)"
  Group: "no"
- Compound: "CC(C)(F)C[C@H](N[C@@H](c1ccc(-c2ccc(S(C)(=O)=O)cc2)cc1)C(F)(F)F)C(=O)NC1CCCN(S(=O)(=O)Cc2ccccc2)CC1=O (some centres not stated)"
  Group: "no"

Ask: Dear colleague, could you confirm whether IC50 of N#CCNC(=O)[C@@H]1CN(S(=O)(=O)c2ccccc2C(F)(F)F)C[C@H]1C(=O)N1CCOCC1 falls below 0.03 µM? Thanks.
Result: no

Ask: Is IC50 strictly under 0.03 µM for the entry CCOC(=O)N1CC(=O)C(NC(=O)[C@H](CC(C)(C)F)N[C@@H](c2ccc(-c3ccc(S(C)(=O)=O)cc3)cc2)C(F)(F)F)C1 (some centres not stated) ?
Result: yes

Ask: Please let me know if N#Cc1ccc(Nc2nc(C#N)nc(N3CCNCC3)n2)cc1 shows IC50 below 0.03 µM.
Result: yes

Ask: Please state whether IC50 is below 0.03 µM for CCCCCCC[C@H]1O[C@@H]1C(OC(=O)c1ccc(I)cc1)C(=O)NC1CCCCC1 (mixture of isomers)
Result: no

Ask: Determine whether this compound shows IC50 lower than 0.03 µM (ties excluded): CSc1ccc(-c2c(C3CCC(F)(F)CC3C(=O)NCC#N)nnn2Cc2ccccc2)cc1 (racemic)
Result: yes

Ask: In the record for CSc1ccc(-c2ccccc2C2CCC(F)(F)CC2C(=O)NCC#N)cc1 (racemic; form 2) , is IC50 less than 0.03 µM?
Result: yes

* * *

A compilation of pIC50 values for Cathepsin K (Homo sapiens, UniProt P43235) from the published literature.
pIC50 is defined as minus the log10 of a concentration measured in mol/L.

- Molecule: "CC(C)C[C@H](Nc1cscc1-c1ccc(N2CCNCC2)cc1)C(=O)NCC#N"
  Subject Of Test: "Cathepsin K (Homo sapiens, UniProt P43235)"
  Value Reported: 9.70
- Molecule: "CC(C)(F)C[C@H](N[C@@H](c1ccc(-c2ccc(S(C)(=O)=O)cc2)cc1)C(F)(F)F)C(=O)NC1CCCN(S(=O)(=O)c2ccccn2)CC1=O (stereo in doubt; 10)"
  Subject Of Test: "Cathepsin K (Homo sapiens, UniProt P43235)"
  Value Reported: 8.00
- Molecule: "CCCC[C@H](NC(=O)OC(C(C)C)C(C)C)C(=O)C(=O)Nc1ccnn1CC"
  Subject Of Test: "Cathepsin K (Homo sapiens, UniProt P43235)"
  Value Reported: 7.59
- Molecule: "CCCC[C@H](NC(=O)O[C@@H]1C(=O)NCC1(C)C)C(=O)C(=O)N[C@H](C)c1ccccc1"
  Subject Of Test: "Cathepsin K (Homo sapiens, UniProt P43235)"
  Value Reported: 8.60

Ask: For the molecule CC(C)(F)C[C@H](N[C@@H](c1ccc(-c2ccc(S(C)(=O)=O)cc2)cc1)C(F)(F)F)C(=O)NC1CN(S(=O)(=O)c2ccccn2)CC1=O (stereo partly drawn) , what pIC50 is on record?
Result: 7.07

Ask: Report pIC50 for CC(C)C[C@H](NC(=O)c1ccc(-c2ccc(N3CCNCC3)cc2)cc1)C(=O)NCC#N please.
Result: 10.82
